These measurements were taken from patent US20240279318A1.

STUDY TARGET: BRCA2 peptide/HLA-A*02:01 complex (recombinant) (human)
PROTOCOL DESCRIPTION: SPR
MEASURED PARAMETER: binding result

AS170036 VL1VH1-VLH98V (scFv) scFv: QSALTQPRSVSGSPGQSVTISCAGTSSDVGSENYVSWYQQHPGKAPKLMIYQVNKRASGVPDRFSGSKSGNTASLTISGLQAEDEADYYCASYRSSDVNIVFGGGTKLTVLGGGGSGGGGSGGGGSEVQLVESGGGLVQPGGSLRLSCAASGFTFSSYAMSWVRQAPGKGLEWVSTINSGTGSPYYADSVKGRFTISRDNSKNTLYLQMNSLRAEDTAVYYCAKNFFDGSWFLGPPAMDYWGQGTLVTVSSHHHHHH    no binding
AS170036 VL1VH1-VLH98P (scFv) scFv: QSALTQPRSVSGSPGQSVTISCAGTSSDVGSENYVSWYQQHPGKAPKLMIYQVNKRASGVPDRFSGSKSGNTASLTISGLQAEDEADYYCASYRSSDPNIVFGGGTKLTVLGGGGSGGGGSGGGGSEVQLVESGGGLVQPGGSLRLSCAASGFTFSSYAMSWVRQAPGKGLEWVSTINSGTGSPYYADSVKGRFTISRDNSKNTLYLQMNSLRAEDTAVYYCAKNFFDGSWFLGPPAMDYWGQGTLVTVSSHHHHHH    no binding
